Reference source for all entries: paper PMC4001326

- System name: pol V Mut E38K/K72R K72R;RecA:E38K (Escherichia coli (pol V from strain RW644)) (UniProt P0AG11+P04152+P0A7G6)
- Test summary: fluorescence anisotropy
- Experimental parameters: fluorescein-dT replacing T44 (from parent S5); 20 mM Tris-HCl pH 7.5, 25 mM Na glutamate, 8 mM MgCl2, 8 mM DTT, 4% glycerol, 0.1 mM EDTA, 37 C; 50 nM labeled hairpin; 500 uM ATP or ATPgS (titrations to …)
Readout kind: pKd
Conceptually, pKd converts a concentration in mol/L into minus its log10.

*Q* Which pKd value belongs to CGAAACAGGAAAGCAGTTAGCGCATTCAGCTCATACTGCTGAATGCGCTAACTGC [Fluorescein 12 nt oh HP] ?
*A* 6.04
